Items are presented alongside their recorded phosphorylation enrichment.
target under test: FGFR1 (UniProt P11362)
Sequence (P11362 whole entry, looked up): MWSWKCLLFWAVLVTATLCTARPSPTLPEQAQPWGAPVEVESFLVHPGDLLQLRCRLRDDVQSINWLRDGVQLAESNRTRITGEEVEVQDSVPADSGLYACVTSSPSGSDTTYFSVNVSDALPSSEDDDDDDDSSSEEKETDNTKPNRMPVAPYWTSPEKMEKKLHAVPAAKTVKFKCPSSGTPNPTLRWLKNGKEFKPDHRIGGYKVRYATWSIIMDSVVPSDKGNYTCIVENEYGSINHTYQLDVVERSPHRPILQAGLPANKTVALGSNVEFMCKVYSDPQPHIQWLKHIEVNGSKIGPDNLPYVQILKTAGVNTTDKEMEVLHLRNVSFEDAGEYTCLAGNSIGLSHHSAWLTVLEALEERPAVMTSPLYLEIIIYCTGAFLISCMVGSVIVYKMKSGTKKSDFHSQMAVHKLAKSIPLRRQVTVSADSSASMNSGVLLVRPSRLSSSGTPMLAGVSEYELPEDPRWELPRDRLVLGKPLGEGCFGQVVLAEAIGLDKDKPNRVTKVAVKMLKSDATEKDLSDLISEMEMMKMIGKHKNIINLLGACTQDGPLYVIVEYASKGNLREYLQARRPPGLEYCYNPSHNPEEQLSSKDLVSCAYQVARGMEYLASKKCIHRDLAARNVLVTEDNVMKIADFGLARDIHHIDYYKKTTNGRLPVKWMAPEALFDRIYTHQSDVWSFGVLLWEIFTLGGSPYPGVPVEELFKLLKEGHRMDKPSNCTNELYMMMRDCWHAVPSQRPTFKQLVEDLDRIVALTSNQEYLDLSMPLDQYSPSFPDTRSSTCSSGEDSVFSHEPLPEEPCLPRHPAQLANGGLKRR
protocol text: phosphorylation enrichment, bacterial display (enrichment ratio); higher = better substrate or ligand; peptides without Tyr show the background

polymer sequence | phosphorylation enrichment
ATHRGYDLDNP [MMUT_Y146_S148L] | 0.409
PQAVTYAEVKH [LILRB4_Y360_K362E] | 0.692
KNSSIYVVANI [VNN1_Y134_N131S] | 0.528
KIRDWYQRQRP [KRT14_Y151] | 0.415
RAILNYIASKY [GSTA3_Y74] | 0.652
GTYVIYVRFSG [FLNB_Y1687_G1691S] | 0.447
PSRKDYETFQP [CTNND2_Y1154_YF] | 0.558
LASLIYNFVLF [AQP6_Y231] | 3.53
KELAKYYKLHH [AK7_Y390_N389K] | 0.377
CQLENYCNGGG [INS_Y108_Y103C] | 0.573
HNLNFYKKTTN [FGFR3_Y648_D646N_YF] | 0.735
TSPKSCPSQKH [CAP2_Y316_Y316C] | 0.432
LYYYSYLLKNH [PTEN_Y180_V175L] | 4.27
CTTIHYNYTCN [TP53_Y234_M237T] | 0.47

###

target under test: SHP2-C SH2;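 note: peptide library displayed on the E. coli surface as eCPX fusions, selected cells deep-sequenced, score is each peptide's frequency after selection divided by its frequency in the input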
protocol text: SH2 binding enrichment of the phosphorylated peptide, bacterial display (enrichment ratio); higher = better substrate or ligand; peptides without Tyr show the background

polymer sequence | SH2 binding enrichment
SEPDLYFDPRG [PKP1_Y160_C161Y_YF] | 0.741
RVILRYVNPGT [LAMA3_Y791] | 0.632
NVADHYRVYKP [ATP6V0D2_Y271_G272R] | 0.517
EGWQVYRLGTR [MISP_Y95_A99T] | 0.871
NETNKYQISVN [FGB_Y368_A365T] | 0.581
LRAGVYHEKDQ [DNM2_Y626_P627H] | 0.657
CRAVKYLQMVG [AVPR2_Y117] | 1.24

###

System: c-Src
protocol text: phosphorylation enrichment, bacterial display (enrichment ratio); higher = better substrate or ligand; peptides without Tyr show the background
Would you mind labelling by phosphorylation enrichment? At or over 0.5 is TRUE, under is FALSE.

polymer sequence | label
FTRNYYVQAVL [CYBA_Y88_R90Q] | TRUE
HSGLAYTMERS [GLUD1_Y512] | TRUE
QCTSAYPLQPE [NANS_Y188] | TRUE
GIYSGYDDAWD [POLR1C_Y36_N32I] | TRUE
RREWYYEVIIV [BACE1_Y260] | TRUE
LFSDHYSPSGR [TMPRSS12_Y23_YF] | FALSE
RPGSGYTNIMR [PKLR_Y564] | TRUE
SRFQFYFQQKG [CHKB_Y381] | FALSE
VDHFGYTKDDK [APOB_Y740] | FALSE
QCTSDYPEHVC [SART3_Y541] | TRUE
TINPIHEHVGF [CHN1_Y143_Y143H_YF] | FALSE
NVADHYRVYKP [ATP6V0D2_Y271_G272R] | FALSE
EGNEQYEGFCV [GRIA3_Y451_R450Q_YF] | TRUE
VVDVTYDDVPI [FLNB_Y1308_E1305D] | TRUE
IINENYDYLKG [NUP98_Y1664] | FALSE
NRVEIYDKTVE [CYFIP1_Y108_E109D] | FALSE
ECKASYPGKIT [PRSS3_Y232] | FALSE
PSQRRNVFFFS [PTEN_Y174_Y174N_YF] | TRUE
FRSSLYSLMET [MYO5C_Y633_L634S] | TRUE
SVVVTYEPPEV [TP53_Y220_P219T] | TRUE
KVKSIYFHTQG [AR_Y916_P914S] | FALSE
VDSAHYKLLET [DTX3L_Y385] | FALSE
AAVNGYAFGGG [ECHS1_Y137] | FALSE
IHFAIYLLKYS [ARMC9_Y107] | FALSE
NFSKMYCNPDA [KNL1_Y489_A486S_YF] | FALSE
QNTGDYYDLYG [PTPN11_Y62] | TRUE
RSAGKYDVYLI [MECP2_Y120] | TRUE
SEELHYYVQNH [UQCRC2_Y207_F208Y] | TRUE
LAEMNYVHRDL [EPHB1_Y740] | FALSE
GGFSRYDEGSG [RECQL5_Y484_D480G] | FALSE
IDQDKYAVHFI [FLNA_Y2388_R2391H] | FALSE
LEDEVYAQKMK [TPM2_Y261] | TRUE
TSKLSYLDPRI [TOP1_Y723_N722S] | FALSE
SEDANYMRVSC [TTC3_Y1288_K1289M] | FALSE
CTTIHHNYMCN [TP53_Y234_Y234H] | FALSE
IENKPYGMSDP [RET_Y1062_L1061P] | FALSE
KLPDAYERFIL [G6PD_Y437_L440F] | TRUE
NRSSLYLVAGP [KIAA1614_Y1083] | FALSE
RRIHSYRGHLW [VHL_Y112] | TRUE
REGAKYVSHGA [ASS1_Y113] | FALSE
LQEQNYPAVDS [FAM114A1_Y115_L116P] | TRUE
AAGGRYDGLLG [HARS2_Y364_V368L] | FALSE
GHLFACDWISI [BEST1_Y227_Y227C_YF] | FALSE
YLGEEYVKAVG [TF_Y674] | FALSE
PAVGIYNDNIN [CDCP1_Y707] | TRUE
KIEGIYARDET [RPL35A_Y34_V33I] | TRUE
TDDMRYPMKSE [TGDS_Y302_N298D] | FALSE
ALAHKYDGGGG [HBB_Y146_H147D] | FALSE
SRDDYYETIAM [NPY1R_Y347_D346Y] | TRUE
LQTYRYHGHSM [PDHA1_Y289] | FALSE
RLSPEYKQNEI [GJB1_Y243] | TRUE
AGQEDDDRLRP [RAC1_Y64_Y64D] | FALSE
PNAYIYVVQLP [L1CAM_Y420_A415P] | TRUE
MEVGQYFFVKC [CYBB_Y324_I325F] | TRUE
KLADVYQAELR [GFAP_Y116] | TRUE
GETEQYVGGGG [FAT4_Y4980_A4977T] | FALSE

###

Tested on: Fer (mouse)
protocol text: phosphorylation enrichment, bacterial display (enrichment ratio); higher = better substrate or ligand; peptides without Tyr show the background
Would you mind labelling by phosphorylation enrichment? At or over 0.5 is criterion met, under is criterion not met.

polymer sequence | label
DKGTLYIVEQI [PLBD1_Y375] | criterion not met
YNNYGYGNDGF [HNRNPH3_Y161] | criterion met
CEETFYTMKMN [MASP2_Y401_V405M] | criterion met
KLADMYGGGKD [CDH1_Y876_E880K] | criterion not met
ASIVDYNIIGW [MYH7_Y588_G584S] | criterion met
EKPAKYDDIKK [GAPDH_Y255] | criterion not met
VECQVYAEDPY [PCCA_Y401_R399Q] | criterion met

###

target under test: FGFR1 (UniProt P11362)
protocol text: phosphorylation enrichment, bacterial display (enrichment ratio); higher = better substrate or ligand; peptides without Tyr show the background
Items are presented alongside their recorded phosphorylation enrichment.

polymer sequence | phosphorylation enrichment
DLLMQHPKAQG [FAM83C_Y600_Y600H] | 0.5
QGLRLYRSHLA [BTK_Y617_P619S] | 0.552
NRVEIYDKTVE [CYFIP1_Y108_E109D] | 0.534
DEQKKYYNAMK [SCN5A_Y1494_E1489D] | 0.575
KELSSYKHLTL [SLIT2_Y776_N775S] | 0.393
SHSMRYFDTAV [HLA-C_Y31] | 0.471
GLPQTYCVSGP [DYSF_Y1684] | 0.497
KLPDAYERFIL [G6PD_Y437_L440F] | 0.476
LTPVKYLLSAT [GSDMC_Y26] | 0.46
NFSKMYCNPDA [KNL1_Y489_A486S_YF] | 0.46
TSSAVYMNLAS [GATAD2B_Y317_I316V] | 1.31
LAIERYVVVSK [RHO_Y136_C140S] | 0.843
RQSHNYLGGFA [SYK_Y47_R45H] | 0.501
FGAHNYHPLPV [OAT_Y55_YF] | 6.41
QSMEPYTKQQL [STAT3_Y640_V637M] | 0.51
IGMIIYFARKA [VCAM1_Y718] | 0.515
NVADHYRVYKP [ATP6V0D2_Y271_G272R] | 0.489
RRAKGYPIDLY [ITGB2_Y125] | 0.718
KCCCIYEKPRS [PPP1R11_Y64_A69S] | 0.456
SVQVDYMKTIL [GLYATL2_Y127] | 0.505
LSSNLYFRWLT [CNGA3_Y168_P163L_YF] | 1.15
MRTMGYMPTEM [CABP5_Y62] | 0.63
SGFESYGSSSY [RPA2_Y9] | 0.368
GEDLSYGDLPP [IRS1_Y151_V154L] | 0.597
SVVVPYEPPED [TP53_Y220_V225D] | 0.545
KLADMYGGGKD [CDH1_Y876_E880K] | 0.462
ATATEYHTTSH [SLC4A1_Y46_D45E] | 0.456
SLFNGYVYSGM [NEIL3_Y71_V76M] | 0.585
FISVGYVDDTL [HLA-B_Y51_Q56L] | 0.572
